Cited source for all entries: patent US20240376198A1

- target_under_test: T1, cynomolgus NKp46 (cynomolgus monkey, UniProt Q95JB9 22-306)
- T1 construct: also called cyno NKp46; cynomolgus monkey NKp46
- experimental_protocol: flow cytometry, HEK293F cells transfected with cyno NKp46
Below: a set of entries, each annotated with reported Bmax (MFI).
# value in MFI; strip the unit string

- NKp46-hz5D7v14-Fc* (Fc fusion, VHH-Fc fusion with an IgG1 Fc lacking a hinge (Fc*)) EVQLVESGGGEVQPGGSLRLSCAASGRTFASAAMGWFRQAPGKEREFVAAISRSDDTYYAESVKGRFTISRDNAKNTVYLQMSSLRAEDTAVYYCAAVVPTYGSSIYVHSAAYNYWGQGTLVTVKPGGGGPSVFLFPPKPKDTLMISRTPEVTCVVVDVSHEDPEVKFNWYVDGVEVHNAKTKPREEQYNSTYRVVSVLTVLHQDWLNGKEYKCKVSNKALPAPIEKTISKAKGQPREPQVYTLPPSRDELTKNQVSLTCLVKGFYPSDIAVEWESNGQPENNYKTTPPVLDSDGSFFLYSKLTVDKSRWQQGNVFSCSVMHEALHNHYTQKSLSLSPG: 14300

Looking up NKp46-hz5D7v12-Fc* (Fc fusion, VHH-Fc fusion with an IgG1 Fc lacking a hinge (Fc*)) EVQLVESGGGEVQPGGSLRLSCAASGRTFASAAMGWFRQAPGKEREFVAAISRSDDTYYAESVKGRFTISRDNAKNTVYLQMSSLRAEDTAVYYCAAVVPTYGSNIYVHSAAYNYWGQGTLVTVKPGGGGPSVFLFPPKPKDTLMISRTPEVTCVVVDVSHEDPEVKFNWYVDGVEVHNAKTKPREEQYNSTYRVVSVLTVLHQDWLNGKEYKCKVSNKALPAPIEKTISKAKGQPREPQVYTLPPSRDELTKNQVSLTCLVKGFYPSDIAVEWESNGQPENNYKTTPPVLDSDGSFFLYSKLTVDKSRWQQGNVFSCSVMHEALHNHYTQKSLSLSPG , I found its Bmax (MFI) recorded as 17900
